The origin of these recorded values is patent US20150141433A1.

- target-entity: NR1/NR2A (Homo sapiens, UniProt Q05586+Q12879)
- Construct: host or cells: HEK293 (tetracycline-inducible NR2A expression)
- Sequence (Q12879 23-1464, other chains not shown): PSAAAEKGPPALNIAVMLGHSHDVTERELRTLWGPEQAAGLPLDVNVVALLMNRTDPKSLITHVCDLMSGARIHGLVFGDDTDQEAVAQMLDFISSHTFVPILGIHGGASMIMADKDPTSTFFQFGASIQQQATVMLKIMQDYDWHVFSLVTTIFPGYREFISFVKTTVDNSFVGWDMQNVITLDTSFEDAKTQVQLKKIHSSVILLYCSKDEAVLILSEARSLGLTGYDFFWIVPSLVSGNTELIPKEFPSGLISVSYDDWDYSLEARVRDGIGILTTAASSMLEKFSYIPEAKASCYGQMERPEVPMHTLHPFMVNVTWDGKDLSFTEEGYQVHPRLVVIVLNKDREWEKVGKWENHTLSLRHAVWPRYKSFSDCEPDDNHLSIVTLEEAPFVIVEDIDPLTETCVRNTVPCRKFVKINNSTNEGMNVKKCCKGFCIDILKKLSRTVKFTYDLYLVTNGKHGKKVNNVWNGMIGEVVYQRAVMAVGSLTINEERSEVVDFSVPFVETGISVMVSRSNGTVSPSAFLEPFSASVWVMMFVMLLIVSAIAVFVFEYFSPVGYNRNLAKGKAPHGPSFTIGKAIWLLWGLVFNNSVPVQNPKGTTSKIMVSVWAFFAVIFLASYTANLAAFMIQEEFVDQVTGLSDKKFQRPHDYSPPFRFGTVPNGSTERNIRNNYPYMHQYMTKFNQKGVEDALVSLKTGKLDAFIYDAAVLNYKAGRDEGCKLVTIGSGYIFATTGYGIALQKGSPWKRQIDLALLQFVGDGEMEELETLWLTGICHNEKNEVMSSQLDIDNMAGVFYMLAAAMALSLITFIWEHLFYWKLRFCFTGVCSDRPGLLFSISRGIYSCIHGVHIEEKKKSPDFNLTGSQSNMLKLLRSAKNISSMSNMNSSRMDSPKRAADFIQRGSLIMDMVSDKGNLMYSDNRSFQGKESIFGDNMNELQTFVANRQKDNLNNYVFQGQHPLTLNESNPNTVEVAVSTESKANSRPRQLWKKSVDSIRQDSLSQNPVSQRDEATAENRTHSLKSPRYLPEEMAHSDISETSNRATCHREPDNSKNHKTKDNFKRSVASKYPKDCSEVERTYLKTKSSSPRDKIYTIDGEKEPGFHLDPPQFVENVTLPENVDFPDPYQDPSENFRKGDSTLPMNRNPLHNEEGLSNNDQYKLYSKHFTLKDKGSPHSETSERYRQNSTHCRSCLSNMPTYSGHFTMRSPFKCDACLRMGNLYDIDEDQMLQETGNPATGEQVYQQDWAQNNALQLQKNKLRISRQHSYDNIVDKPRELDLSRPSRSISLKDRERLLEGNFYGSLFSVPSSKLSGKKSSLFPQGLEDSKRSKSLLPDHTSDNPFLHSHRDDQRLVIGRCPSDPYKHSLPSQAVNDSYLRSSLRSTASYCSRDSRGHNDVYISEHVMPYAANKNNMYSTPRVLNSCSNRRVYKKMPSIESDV
- assay-method-text: FDSS Ca2+ influx inhibition assay in HEK293 cells expressing NR1/NR2A
- Assay type: cell-based
- cond: 3 μM glutamate, 3 μM glycine, 1 mM Ca2+, Ca2+ influx inhibition relative to MK801, read-out: NR2A IC50
I'd appreciate it if you could supply IC50 values for the items below.
# value in nM; strip the unit string

Lookup: Could you share which IC50 value was measured for Cc1ncc(CNC(=O)c2ccc(CNS(=O)(=O)c3ccc(F)c(Cl)c3)cn2)s1 ?
Found: 204

Lookup: Fill in the blank: the reported IC50 of CC(NC(=O)c1ccc(CNS(=O)(=O)c2ccc(F)c(Cl)c2)cn1)c1cccs1 (centres unmarked) is ____.
Found: 2400

Lookup: # query: IC50 of entry O=C(NCc1cnccn1)c1ccc(CNS(=O)(=O)c2ccc(F)c(Cl)c2)cn1
Found: 1690

Lookup: Can you look up the measured IC50 of Cc1ncc(CNC(=O)c2cnc(CNS(=O)(=O)c3cc(F)cc(F)c3)c(C)n2)s1 for me?
Found: 366

Lookup: Param item = Cc1ncc(CNC(=O)c2cnc(CNS(=O)(=O)c3ccc(F)c(Cl)c3)c(C(F)(F)F)n2)s1 ; retrieve measured IC50.
Found: 169
